# credit: PubChem BioAssay AID1963831

test system: 889142-216-R-J1-PDC complex spheroid viability; experiment: Anticancer human tumor 889142-216-R-J1-PDC patient-derived bladder carcinoma cell line growth inhibition [POLQ]; conditions: second compound 0.1 µM; first compound 0.316 µM; hits give low values
RECORDED_ENDPOINT: viability, T/C (%)

INSERT INTO results (molecule, recorded_endpoint, recorded_number) VALUES
  ('C=CC(=O)N1CCN(c2nc(=O)n(-c3c(C)ccnc3C(C)C)c3nc(-c4c(O)cccc4F)c(F)cc23)C(C)C1 (stereo not given) + Nc1ccc(C#CCN(C(=O)Cc2ncc(C(F)(F)F)cc2C(F)(F)F)c2ccc(F)cc2)nn1', 'viability, T/C', 109),
  ('COc1cc(C2c3cc4c(cc3C(OC3OC5COC(C)OC5C(O)C3O)C3COC(=O)C23)OCO4)cc(OC)c1O (stereo not given) + COC1C(OC(N)=O)C(O)C(Oc2ccc3c(O)c(NC(=O)c4ccc(O)c(CC=C(C)C)c4)c(=O)oc3c2C)OC1(C)C', 'viability, T/C', 63),
  ('O=C(c1cc(Cc2n[nH]c(=O)c3ccccc23)ccc1F)N1CCN(C(=O)C2CC2)CC1 + Nc1ccc(C#CCN(C(=O)Cc2ncc(C(F)(F)F)cc2C(F)(F)F)c2ccc(F)cc2)nn1', 'viability, T/C', 83.7),
  ('COc1ccc([C@@H](O)c2cc(-c3ncnc4cc(N5CCOCC5)ccc34)c(F)cc2Cl)nn1 + Cc1cccc(N(C)C(=O)C2C(O)CCN2c2nc(C)cc(C(F)(F)F)c2C#N)c1', 'viability, T/C', 97.7),
  ('CCc1cc2c(N3CCc4c(cc(Cn5ccnc5)cc4-c4cn(C)nc4C(F)(F)F)C3=O)ccnc2c(OC)n1 + Cc1cccc(N(C)C(=O)C2C(O)CCN2c2nc(C)cc(C(F)(F)F)c2C#N)c1', 'viability, T/C', 120);

* * *

tested on: 889142-216-R-J1-PDC complex spheroid viability; test: Anticancer human tumor 889142-216-R-J1-PDC cell line growth inhibition [POLQ]; conditions: second compound 3.16 µM; first compound 0.0316 µM; hits give low values;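 also: spheroids exposed to compounds for seven days; 100% = DMSO vehicle control viability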
Each record here notes measured viability, T/C.
RECORDED_ENDPOINT: viability, T/C (%)

INSERT INTO results (compound, recorded_endpoint, recorded_number) VALUES
  ('C=CC(=O)N1CCN(c2nc(=O)n(-c3c(C)ccnc3C(C)C)c3nc(-c4c(O)cccc4F)c(F)cc23)C(C)C1 (stereo not given) + COC1C(OC(N)=O)C(O)C(Oc2ccc3c(O)c(NC(=O)c4ccc(O)c(CC=C(C)C)c4)c(=O)oc3c2C)OC1(C)C', 'viability, T/C', 98.3),
  ('COc1cc(C2c3cc4c(cc3C(OC3OC5COC(C)OC5C(O)C3O)C3COC(=O)C23)OCO4)cc(OC)c1O (stereo not given) + COC1C(OC(N)=O)C(O)C(Oc2ccc3c(O)c(NC(=O)c4ccc(O)c(CC=C(C)C)c4)c(=O)oc3c2C)OC1(C)C', 'viability, T/C', 94.9),
  ('COc1cc(C2c3cc4c(cc3C(OC3OC5COC(C)OC5C(O)C3O)C3COC(=O)C23)OCO4)cc(OC)c1O (stereo not given) + Cc1cccc(N(C)C(=O)C2C(O)CCN2c2nc(C)cc(C(F)(F)F)c2C#N)c1', 'viability, T/C', 83),
  ('CNCc1ccc(-c2[nH]c3cc(F)cc4c3c2CCNC4=O)cc1 + Cc1cccc(N(C)C(=O)C2C(O)CCN2c2nc(C)cc(C(F)(F)F)c2C#N)c1', 'viability, T/C', 102),
  ('CC(C)n1c(=O)n(C)c2cnc3cc(F)c(-c4ccc(OCCCN5CCCCC5)nc4)cc3c21 + Nc1ccc(C#CCN(C(=O)Cc2ncc(C(F)(F)F)cc2C(F)(F)F)c2ccc(F)cc2)nn1', 'viability, T/C', 85.6);
